target: long isoform of human D2 receptor (Homo sapiens); test: cAMP HTRF Agonist Assay (DRD2L PathHunter CHO-K1 cells, forskolin-stimulated)
pIC50: −log10 of the molar value.
READOUT: pIC50

O=c1ccc2ccc(OCCCCN3CCc4sccc4C3)nc2[nH]1 | > 8.00
O=c1ccc2ccc(OCCCCN3CCc4cc(F)ccc4C3)nc2[nH]1 | < 5.00
O=C1CCc2ccc(OCCCCN3CCc4cc(C(F)(F)F)ccc4C3)nc2N1 | 7.00 to 8.00
O=C1CCc2ccc(OCCCCN3CCc4c(cnn4-c4cccc(Cl)c4)C3)cc2N1 | < 5.00
c1cc(OCCCCN2CCc3ccccc3C2)nc(-c2c[nH]cn2)c1 | < 5.00

Reported pIC50 of `O=c1ccc2ccc(OCCCCN3CCc4cc(C(F)(F)F)ccc4C3)nc2[nH]1` : > 8.00

Reported pIC50 of `O=c1ccc2ccc(OCCCCN3CCc4cc(Cl)ccc4C3)nc2[nH]1` : > 8.00

---

target: long isoform of human D2 receptor (Homo sapiens, UniProt P14416); assay: Arrestin Antagonist Assay (DRD2L PathHunter CHO-K1 cells, vs EC80 dopamine)
Sequence (P14416 whole entry, canonical isoform): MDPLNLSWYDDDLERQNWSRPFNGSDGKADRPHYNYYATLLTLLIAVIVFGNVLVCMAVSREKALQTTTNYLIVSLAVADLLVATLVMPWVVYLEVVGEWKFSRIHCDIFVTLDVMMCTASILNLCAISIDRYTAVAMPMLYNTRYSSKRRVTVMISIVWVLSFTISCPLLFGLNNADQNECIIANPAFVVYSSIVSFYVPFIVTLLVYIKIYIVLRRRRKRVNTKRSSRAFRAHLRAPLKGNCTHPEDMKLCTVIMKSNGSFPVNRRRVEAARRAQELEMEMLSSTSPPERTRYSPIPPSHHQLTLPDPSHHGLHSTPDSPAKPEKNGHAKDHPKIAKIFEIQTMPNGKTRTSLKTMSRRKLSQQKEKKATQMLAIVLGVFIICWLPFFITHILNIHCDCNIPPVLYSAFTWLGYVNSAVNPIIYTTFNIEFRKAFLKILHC
pIC50: −log10 of the molar value.
READOUT: pIC50

# annotated cases, reported pIC50 shown
Cc1ccccc1N1CCN(CCCCOc2ccc3cn[nH]c3c2)CC1 [Compound 96] | 6.00 to 7.00
O=C1CCc2ccc(OCCCCN3CCc4sccc4C3)nc2N1 [Compound 69] | 7.00 to 8.00
CCC(=O)Nc1cccc(OCCCCN2CCc3ccccc3C2)n1 [Compound 41] | 6.00 to 7.00
O=C1CCc2ccc(OCCCCN3CCc4ccccc4C3)nc2N1 [Compound 68] | 7.00 to 8.00
O=C1CCc2ccc(OCCCCN3CCc4nn(-c5ccc(F)cc5)cc4C3)cc2N1 [Compound 37] | 7.00 to 8.00

# lookup: O=C1CCc2ccc(OCCCCN3CCc4c(cnn4-c4ccccc4)C3)cc2N1 [Compound 31] on long isoform of human D2 receptor (Homo sapiens, UniProt P14416), pIC50 = < 5.00

# lookup: c1cc(OCCCCN2CCc3ccccc3C2)nc(-c2cc[nH]n2)c1 [Compound 44] on long isoform of human D2 receptor (Homo sapiens, UniProt P14416), pIC50 = 7.00 to 8.00

---

target: long isoform of human D2 receptor (Homo sapiens, UniProt P14416); experiment: cAMP HTRF Agonist Assay (DRD2L PathHunter CHO-K1 cells, forskolin-stimulated)
READOUT: IC50

# annotated cases, reported IC50 shown
N#Cc1cccnc1N1CCN(CCCCOc2cccc(-c3cc[nH]n3)n2)CC1 [Compound 48] | < 0.01 µM
CCCOc1cccnc1N1CCN(CCCCOc2ccc3cccc(O)c3n2)CC1 [Compound 11] | > 10 µM

Reported IC50 of Oc1cccc2ccc(OCCCCN3CCc4cccc(C(F)(F)F)c4C3)nc12 [Compound 21] : < 0.01 µM

Reported IC50 of O=C1CCc2ccc(OCCCCN3CCc4ncncc4C3)cc2N1 [Compound 23] : 0.1 to 1 µM

---

target: long isoform of human D2 receptor (Homo sapiens); assay: Arrestin Agonist Assay (DRD2L PathHunter CHO-K1 cells, β-arrestin recruitment)
pEC50: −log10 of the molar value.
Here the recorded pEC50 is given for each entry.

# annotated cases, reported pEC50 shown
O=C1NCCc2ccc(OCCCCN3CCc4ccccc4C3)nc2N1 | < 5.00
N#Cc1cccc2c1CCN(CCCCOc1ccc3c(n1)NC(=O)CC3)C2 | 7.00 to 8.00

Reported pEC50 of `O=C1CCc2ccc(OCCCCN3CCc4c(cccc4C(F)(F)F)C3)nc2N1` : 6.00 to 7.00

Reported pEC50 of `Cc1cccc(N2CCN(CCCCOc3ccc4cn[nH]c4c3)CC2)c1C` : < 5.00

Reported pEC50 of `CCC(=O)Nc1cccc(OCCCCN2CCc3ccccc3C2)n1` : < 5.00

Reported pEC50 of `O=c1ccc2ccc(OCCCCN3CCc4ccccc4C3)nc2[nH]1` : > 8.00

Reported pEC50 of `O=C1CCc2ccc(OCCCCN3CCc4c(cnn4-c4ccccc4)C3)cc2N1` : > 8.00

Reported pEC50 of `O=C1CCc2ccc(OCCCCN3CCc4c(Cl)cccc4C3)nc2N1` : > 8.00

Reported pEC50 of `N#Cc1ccc2c(c1)CCN(CCCCOc1ccc3ccc(=O)[nH]c3n1)C2` : < 5.00

Reported pEC50 of `c1ccc(N2CCN(CCCCOc3ccc4cn[nH]c4c3)CC2)nc1` : > 8.00

Reported pEC50 of `COc1ccc2c(c1)CCN(CCCCOc1ccc3cccc(O)c3n1)C2` : > 8.00

Reported pEC50 of `Cc1cccc(N2CCN(CCCCOc3ccc4cn[nH]c4n3)CC2)c1C` : < 5.00

Reported pEC50 of `c1ccc2c(N3CCN(CCCCOc4ccc5cn[nH]c5c4)CC3)cccc2c1` : > 8.00
